Source listed as patent US20210024646A1.

# key: entry, value: EC50
Target: T1, CD73 on the surface of human tumor cells (human, UniProt P21589 27-549)
T1 chain: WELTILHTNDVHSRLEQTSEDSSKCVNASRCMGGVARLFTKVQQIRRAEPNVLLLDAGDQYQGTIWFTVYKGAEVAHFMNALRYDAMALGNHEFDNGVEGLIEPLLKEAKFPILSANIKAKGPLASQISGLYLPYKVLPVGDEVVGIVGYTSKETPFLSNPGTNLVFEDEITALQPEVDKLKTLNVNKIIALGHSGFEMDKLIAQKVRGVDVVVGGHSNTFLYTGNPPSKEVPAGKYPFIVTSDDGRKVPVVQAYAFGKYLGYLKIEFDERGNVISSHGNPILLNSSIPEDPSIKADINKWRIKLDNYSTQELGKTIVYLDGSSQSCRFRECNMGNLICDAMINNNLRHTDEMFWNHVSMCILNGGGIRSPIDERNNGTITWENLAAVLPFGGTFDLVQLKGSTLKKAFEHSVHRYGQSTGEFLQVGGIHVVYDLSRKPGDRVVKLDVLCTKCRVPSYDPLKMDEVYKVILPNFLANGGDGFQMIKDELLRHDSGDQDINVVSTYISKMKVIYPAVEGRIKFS
Assay: FACS; MDA-MB-231 cells, right table
Supply the numeric figure in nM, leaving out any unit text.

GET /values?readout=EC50&item= Hu001c-32 (antibody, V domains shown) VH: QVQLVQSGAEVKKPGASVKVSCKASGYTFTNYYIYWVKQRPGQRLEWIGWIYPGNLNIKYNEKFKGRSTLTADKSASTAYMELSSLRSEDTAVYYCARDDNYAWFAYWGQGTLVTVSS VL: DIQMTQSPSSLSASVGDRVTITCKASQDVSTAVAWYQQKPGKAPKLLIYWTNTRHTGVPSRFSGSGSGTDHTLTISSLQPEDFATYYCQQHYSTPFTFGQGTKLEIK
0.608

Next item in the queue.
GET /values?readout=EC50&item= Hu001c-23 (antibody, V domains shown) VH: QVQLVQSGAEVKKPGASVKVSCKASGYTFTNYYIYWVKQRPGQGLEWIGWIYPGNLNIKYNEKFKGRVTITADKSASTAYMELSSLRSEDTAVYYCARDDNYAWFAYWGQGTLVTVSS VL: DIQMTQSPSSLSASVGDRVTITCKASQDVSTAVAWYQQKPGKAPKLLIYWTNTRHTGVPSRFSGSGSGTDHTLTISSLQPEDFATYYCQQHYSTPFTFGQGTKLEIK
0.593
